target or test system: CDK4/cyclin D1 (Homo sapiens (Human))
Sequence (P11802 whole entry): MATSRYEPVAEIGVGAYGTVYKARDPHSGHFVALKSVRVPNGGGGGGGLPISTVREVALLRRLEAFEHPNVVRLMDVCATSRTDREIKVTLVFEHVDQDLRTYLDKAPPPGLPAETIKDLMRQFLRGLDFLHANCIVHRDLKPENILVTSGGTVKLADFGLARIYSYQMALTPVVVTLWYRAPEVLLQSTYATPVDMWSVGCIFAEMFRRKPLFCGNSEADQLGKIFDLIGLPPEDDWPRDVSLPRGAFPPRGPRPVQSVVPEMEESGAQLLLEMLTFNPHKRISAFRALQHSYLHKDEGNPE
Sequence (P24385 whole entry partner): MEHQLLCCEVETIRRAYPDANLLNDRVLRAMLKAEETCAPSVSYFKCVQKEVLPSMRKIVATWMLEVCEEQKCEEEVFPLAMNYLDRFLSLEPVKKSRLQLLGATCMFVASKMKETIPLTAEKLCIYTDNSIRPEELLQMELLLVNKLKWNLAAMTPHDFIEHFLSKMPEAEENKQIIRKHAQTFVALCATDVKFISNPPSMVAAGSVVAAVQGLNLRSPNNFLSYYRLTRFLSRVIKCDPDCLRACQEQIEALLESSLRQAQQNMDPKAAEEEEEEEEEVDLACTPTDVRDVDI
assay info: CDK4/Cyclin D1 enzymatic activity assay (Lance TR-FRET)
Type: biochemical
study conditions: Table 2; 3 μM ATP; read-out: CDK4
recorded metric: IC50

Below, each entry is followed by its recorded IC50 result.
[[record]]
molecule_smiles = "CN(C)C(=O)c1cc2cnc(Nc3ccc(N4CCN(C(=O)OC(C)(C)C)CC4)nn3)nc2n1C1CCCC1"
result = "100 to 1000 nM"

[[record]]
molecule_smiles = "C[C@@H]1CN(c2ccc(Nc3ncc4cc(C(=O)N(C)C)n(C5CCCC5)c4n3)nc2)CCN1"
result = "1 to 10 nM"


Batch request: IC50 for each of the following molecules.
1. c1ncc(-c2cc3cnc(Nc4ccc(N5CCNCC5)cn4)nc3n2C2CCCC2)o1
2. CN(C)C(=O)c1cc2cnc(Nc3ccc(C(=O)N4CCC(O)CC4)cn3)nc2n1C1CCCC1
3. CN(C)C(=O)c1cc2cnc(Nc3ccc(N(C)CCN)cn3)nc2n1C1CCCC1
4. CC(C)N1CCN(c2ccc(Nc3ncc4cc(C(=O)N(C)C)n(C5CCCC5)c4n3)nn2)CC1
5. CN(C)C(=O)c1cc2cnc(Nc3ccc(N4CCN(C(=O)CCC5CCCC5)CC4)cn3)nc2n1C1CCCC1

1: 1 to 10 nM; 2: 10 to 100 nM; 3: 10 to 100 nM; 4: 10 to 100 nM; 5: 10 to 100 nM

Record `CN(C)C(=O)c1cc2cnc(Nc3ccc(N4CCN(C[C@@H](O)CO)CC4)cn3)nc2n1C1CCCC1` , field IC50: 10 to 100 nM
